Target: DDR1 (Homo sapiens (Human), UniProt Q08345)
Sequence (Q08345 19-913): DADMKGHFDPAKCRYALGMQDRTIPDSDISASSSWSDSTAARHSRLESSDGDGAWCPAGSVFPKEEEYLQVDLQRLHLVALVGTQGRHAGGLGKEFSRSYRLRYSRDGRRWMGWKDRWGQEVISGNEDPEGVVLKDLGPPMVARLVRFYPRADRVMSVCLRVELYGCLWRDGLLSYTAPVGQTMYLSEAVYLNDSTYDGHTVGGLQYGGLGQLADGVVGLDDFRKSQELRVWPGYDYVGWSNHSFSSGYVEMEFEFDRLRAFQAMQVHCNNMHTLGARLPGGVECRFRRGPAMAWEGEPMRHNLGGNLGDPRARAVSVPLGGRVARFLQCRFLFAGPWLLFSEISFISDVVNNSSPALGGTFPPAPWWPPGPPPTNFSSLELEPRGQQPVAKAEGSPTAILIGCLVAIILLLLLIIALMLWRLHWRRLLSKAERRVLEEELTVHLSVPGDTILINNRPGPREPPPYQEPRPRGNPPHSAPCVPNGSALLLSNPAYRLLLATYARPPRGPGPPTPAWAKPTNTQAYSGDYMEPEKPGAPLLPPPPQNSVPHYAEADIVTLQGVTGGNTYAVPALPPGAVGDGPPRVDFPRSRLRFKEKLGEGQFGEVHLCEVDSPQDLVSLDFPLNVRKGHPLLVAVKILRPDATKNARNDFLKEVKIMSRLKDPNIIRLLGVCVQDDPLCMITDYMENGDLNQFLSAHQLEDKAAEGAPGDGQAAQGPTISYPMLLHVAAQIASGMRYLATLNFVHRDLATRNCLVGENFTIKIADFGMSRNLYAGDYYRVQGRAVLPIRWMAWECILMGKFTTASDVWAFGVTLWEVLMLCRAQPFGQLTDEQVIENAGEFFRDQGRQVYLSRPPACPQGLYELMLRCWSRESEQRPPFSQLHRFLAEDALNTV
Assay: Measurement of DDR1 enzyme inhibitory activity (phosphorylation of biotinylated peptide, time-resolved fluorescence)
Assay type: biochemical
Details: human DDR1 enzyme, biotinylated peptide phosphorylation; read-out: DDR1 enzyme inhibition assay IC50
Response field label takes Fulfilled when IC50 is strictly below 400 nM and Not fulfilled in all other cases.

Known results for compounds:
1. CCSc1ccc(Cl)cc1Cn1cnc2ccc(OC(F)(F)F)cc2c1=O :: Not fulfilled
2. CCSc1ccc(C#N)cc1Nn1cnc2cc(C)c(Br)cc2c1=O :: Fulfilled
3. CCSc1ccc(C#N)cc1Nn1cnc2c(Br)cc(C(F)(F)F)cc2c1=O :: Fulfilled

For "CCS(=O)(=O)c1ccc(Br)cc1Nn1cnc2c(Br)cc(C(F)(F)F)cc2c1=O" , is the recorded IC50 below the cut-off of 400 nM? Fulfilled

For "CCc1ccc2ncn(Nc3cc(Cl)ccc3S(=O)(=O)CC)c(=O)c2c1" , is the recorded IC50 below the cut-off of 400 nM? Fulfilled

For "CCS(=O)(=O)c1c(Cl)cc(Cl)cc1Nn1cnc2ccc(C(F)(F)F)cc2c1=O" , is the recorded IC50 below the cut-off of 400 nM? Fulfilled

For "CCS(=O)(=O)c1ccc(C#N)cc1Nn1cnc2cc(Br)c(OC(F)(F)F)cc2c1=O" , is the recorded IC50 below the cut-off of 400 nM? Not fulfilled

For "CCSc1ccc(Cl)cc1Cn1cnc2c(Br)cc(OC(F)(F)F)cc2c1=O" , is the recorded IC50 below the cut-off of 400 nM? Not fulfilled

For "CCCc1ccc2ncn(Nc3cc(Cl)ccc3SCC)c(=O)c2c1" , is the recorded IC50 below the cut-off of 400 nM? Fulfilled

For "CCS(=O)(=O)c1ccc(Cl)cc1Nn1cnc2cnc(OC)cc2c1=O" , is the recorded IC50 below the cut-off of 400 nM? Not fulfilled

For "CCS(=O)(=O)c1ccc(C#N)cc1Nn1cnc2cc(CN3CCNCC3)c(Br)cc2c1=O" , is the recorded IC50 below the cut-off of 400 nM? Fulfilled

For "CCS(=O)(=O)c1ccc(F)cc1Nn1cnc2c(Br)cc(C(F)(F)F)cc2c1=O" , is the recorded IC50 below the cut-off of 400 nM? Fulfilled

For "CCS(=O)(=O)c1ccc(N)cc1Cn1ccc2ccc(OC(F)(F)F)cc2c1=O" , is the recorded IC50 below the cut-off of 400 nM? Not fulfilled

For "CCS(=O)(=O)c1ccc(Cl)cc1Nn1cnc2cc(F)c(F)cc2c1=O" , is the recorded IC50 below the cut-off of 400 nM? Fulfilled

For "CCS(=O)(=O)c1ccc(Cl)cc1Nn1cnc2ccc(I)cc2c1=O" , is the recorded IC50 below the cut-off of 400 nM? Fulfilled

For "CCSc1ccc(Cl)cc1Nn1cnc2ccc(SC)cc2c1=O" , is the recorded IC50 below the cut-off of 400 nM? Fulfilled

For "CCS(=O)(=O)c1cc(Cl)c(C#N)cc1Nn1cnc2ccc(C(F)(F)F)cc2c1=O" , is the recorded IC50 below the cut-off of 400 nM? Fulfilled
